- targetOfAssay: MERTK (UniProt Q12866)
- Sequence (Q12866 whole entry, looked up): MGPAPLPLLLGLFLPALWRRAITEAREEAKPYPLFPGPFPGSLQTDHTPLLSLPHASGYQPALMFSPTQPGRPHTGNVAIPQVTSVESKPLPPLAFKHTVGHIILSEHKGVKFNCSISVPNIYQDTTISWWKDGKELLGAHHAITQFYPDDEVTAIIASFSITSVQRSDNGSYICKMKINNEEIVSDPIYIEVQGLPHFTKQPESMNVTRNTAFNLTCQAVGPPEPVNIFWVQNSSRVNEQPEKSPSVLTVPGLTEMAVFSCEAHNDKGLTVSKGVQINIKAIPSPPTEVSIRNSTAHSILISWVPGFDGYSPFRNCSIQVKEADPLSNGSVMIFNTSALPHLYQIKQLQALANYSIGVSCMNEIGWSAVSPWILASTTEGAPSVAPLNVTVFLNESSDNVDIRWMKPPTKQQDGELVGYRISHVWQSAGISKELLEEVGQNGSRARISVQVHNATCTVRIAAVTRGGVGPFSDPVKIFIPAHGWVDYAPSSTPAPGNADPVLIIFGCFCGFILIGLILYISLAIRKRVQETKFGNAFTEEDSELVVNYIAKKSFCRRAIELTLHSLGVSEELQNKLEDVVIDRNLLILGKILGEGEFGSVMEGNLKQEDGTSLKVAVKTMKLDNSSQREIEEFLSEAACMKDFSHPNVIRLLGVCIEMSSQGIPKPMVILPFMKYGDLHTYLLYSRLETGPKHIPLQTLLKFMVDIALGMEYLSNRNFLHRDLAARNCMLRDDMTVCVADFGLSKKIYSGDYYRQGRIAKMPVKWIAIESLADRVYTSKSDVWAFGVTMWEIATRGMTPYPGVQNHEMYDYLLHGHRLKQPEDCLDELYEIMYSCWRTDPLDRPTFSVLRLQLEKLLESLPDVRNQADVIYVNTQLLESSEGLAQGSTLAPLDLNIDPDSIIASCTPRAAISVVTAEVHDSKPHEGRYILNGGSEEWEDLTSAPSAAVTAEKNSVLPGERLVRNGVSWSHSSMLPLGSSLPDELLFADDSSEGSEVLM
- assayRemarks: phosphorylation enrichment, bacterial display (enrichment ratio); higher = better substrate or ligand; peptides without Tyr show the background;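 also: 11-residue human phosphosite peptides and single-mutation variants displayed on the E. coli surface, counted by deep sequencing, each peptide's frequency after selection divided by its frequency in the unselected input library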;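 also: frequency after pTyr selection over input frequency; kinase dosed for 20-30% of maximal phosphorylation in three min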

>  <sequenceText>
AGTIPYHAHLD [ASS1_Y291_L290P]

>  <phosphorylation enrichment>
0.456

$$$$
>  <sequenceText>
AGADGYGFLAP [FOXL2_Y186_YF]

>  <phosphorylation enrichment>
0.618

$$$$
>  <sequenceText>
KNCFKYYMSDD [ATRX_Y203]

>  <phosphorylation enrichment>
0.496

$$$$
>  <sequenceText>
RKQQLYIAMEE [CCDC39_Y593_T594I]

>  <phosphorylation enrichment>
1

$$$$
>  <sequenceText>
RLPNGYGLAYR [DLK1_Y262_S260N]

>  <phosphorylation enrichment>
0.453

$$$$
>  <sequenceText>
ANAYIYDVQLP [L1CAM_Y420_V421D]

>  <phosphorylation enrichment>
9.63

$$$$
>  <sequenceText>
PLQDVYKIGGI [EEF1A2_Y254]

>  <phosphorylation enrichment>
0.522

$$$$
>  <sequenceText>
GPKSTYISSAG [GOLGA5_Y62_A67G]

>  <phosphorylation enrichment>
0.389

$$$$
>  <sequenceText>
AKLKDYFIFNK [CCDC42_Y149_YF]

>  <phosphorylation enrichment>
0.56

$$$$
>  <sequenceText>
FGMQLYQNFMH [GRB14_Y347_YF]

>  <phosphorylation enrichment>
2.89

$$$$
>  <sequenceText>
PAVGIYNDNIN [CDCP1_Y707]

>  <phosphorylation enrichment>
0.641

$$$$
>  <sequenceText>
TFAVSYLPDMS [FLNC_Y1602_T1599A_YF]

>  <phosphorylation enrichment>
0.441

$$$$
>  <sequenceText>
MSRNLYSGDFF [DDR2_Y736_YF]

>  <phosphorylation enrichment>
9.92

$$$$
>  <sequenceText>
PQAVRYIFTID [DCX_Y103_G100A_YF]

>  <phosphorylation enrichment>
0.595

$$$$
>  <sequenceText>
LQTYRYHGHSM [PDHA1_Y289]

>  <phosphorylation enrichment>
0.698

$$$$
>  <sequenceText>
VHKEGYNKLNQ [ZNF676_Y98]

>  <phosphorylation enrichment>
0.426

$$$$
>  <sequenceText>
DKANRYFSPNF [PTEN_Y336]

>  <phosphorylation enrichment>
0.374

$$$$
>  <sequenceText>
ESKKHYGFSLF [ANXA3_Y295_F291S_YF]

>  <phosphorylation enrichment>
0.526

$$$$
>  <sequenceText>
LKVQVYILGRE [ASS1_Y359_G356V]

>  <phosphorylation enrichment>
1.36

$$$$
>  <sequenceText>
YLTSSYINIST [IL23R_Y178]

>  <phosphorylation enrichment>
0.648

$$$$
>  <sequenceText>
SHSMRYFDTAV [HLA-C_Y31]

>  <phosphorylation enrichment>
0.497

$$$$
>  <sequenceText>
FRDMDYRSFPH [RBM10_Y41_R46H_YF]

>  <phosphorylation enrichment>
0.385

$$$$
>  <sequenceText>
TFEYRYLEDRD [CNOT3_Y746]

>  <phosphorylation enrichment>
0.493

$$$$
>  <sequenceText>
TESALYGCTIL [MAP3K21_Y724_V728I]

>  <phosphorylation enrichment>
1.57

$$$$
>  <sequenceText>
SKHRLYSDLQT [PTCHD1_Y84]

>  <phosphorylation enrichment>
0.645

$$$$
>  <sequenceText>
CGQDPCIRELG [UROS_Y19_Y19C]

>  <phosphorylation enrichment>
0.449

$$$$
>  <sequenceText>
ISIFYYAKGQP [MPZ_Y82_H81Y]

>  <phosphorylation enrichment>
0.504

$$$$
>  <sequenceText>
LNPLIYTLRNA [OR4C46_Y285_K288R]

>  <phosphorylation enrichment>
1.97

$$$$
>  <sequenceText>
RTLTHYKSAVK [ASNS_Y555]

>  <phosphorylation enrichment>
0.702

$$$$
